molecular target: Voltage-gated potassium channel subunit beta-2 (Rattus norvegicus); assay: KvBeta enzyme negative modulators, primary screen, biochemical, NADPH fluorescence (AID 622); conditions: recombinant KvBeta, 4-cyanobenzaldehyde reduction, at 10 µM, stronger effect = higher value;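 note: slope of raw intensity against log time taken from 70 to 1610 s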
Label rule, in plain words: fluorescence slope of -0.4 and up is rule met, under -0.4 is rule not met.

These recorded examples may help you get a feel for the data.
Hello, I need to know if CCc1nnc(SCC(=O)NC2CCCCC2)nc1CC has measured fluorescence slope not below -0.4. Thanks!
rule not met

Please indicate if the recorded fluorescence slope for O=C(CCS(=O)(=O)c1cccc2nonc12)Nc1cccc2c1CCCC2 meets or exceeds -0.4.
rule not met

Hello, I need to know if CSc1nc2c(c(=O)n1C)SC(C)C2 (configuration not stated) has measured fluorescence slope not below -0.4. Thanks!
rule not met

Further cases:
Is fluorescence slope for C=CCOC(=O)C1=C(C)OC(N)=C(C#N)C1c1ccc2c(c1)OCO2 (configuration not stated) at or above -0.4?
rule not met

Please indicate if the recorded fluorescence slope for CCn1c(C(=O)N2CCC(C(=O)N3CCN(c4ccccn4)CC3)CC2)cc2sccc21 meets or exceeds -0.4.
rule not met

Please tell me: is the compound CCCOc1cccc(C(=O)N(Cc2ccco2)C2CCS(=O)(=O)C2)c1 (configuration not stated) at or over -0.4 in terms of fluorescence slope?
rule not met

Answer whether fluorescence slope of N#Cc1nc(COc2ccccc2Cl)oc1NCc1ccc(F)cc1 is greater than or equal to -0.4.
rule met

fluorescence slope >= -0.4 for CC(C)(C)OC(=O)N1CCCC1C(=O)N1CCc2ccccc21 (configuration not stated) ?
rule not met

Quick check: does Cc1ccc(CCC(=O)Nc2ccc(S(N)(=O)=O)cc2)o1 have fluorescence slope greater than or equal to -0.4?
rule not met

Can O=C(Sc1nnnn1C1CCCCC1)c1cccs1 be said to have fluorescence slope at or above -0.4?
rule met

Does COC(=O)c1c(N)sc(C(=O)N2CCOCC2)c1C have a reported fluorescence slope of at least -0.4?
rule not met

Determine whether measured fluorescence slope meets or exceeds -0.4 for CCc1cc(=O)oc2cc(C)c(CN3CCCCC3)c(O)c12
rule not met

Hi, just wondering whether Nc1nc(-c2ccc(Br)s2)c(Br)s1 shows fluorescence slope of -0.4 or higher.
rule not met

State whether the measured fluorescence slope reaches -0.4, counting equality as reaching it, for COCCCn1c2nc3ccccc3nc2c2c(=O)n(-c3ccccc3OC)c(C)nc21
rule not met

Assess whether reported fluorescence slope for CCOC(=O)c1c(NC(=O)COC(=O)c2c(C)noc2C)sc2c1CCC2 sits at -0.4 or higher.
rule not met

State whether the measured fluorescence slope reaches -0.4, counting equality as reaching it, for CCn1cc(C(=O)N2CCOCC2)c(=O)c2cc(S(=O)(=O)N(C)C3CCCCC3)ccc21
rule not met

Quick check, fluorescence slope >= -0.4? c1ccc(-c2ccccc2OCCn2cncn2)cc1
rule not met

Item O=C(c1cc(N2CCCCC2)nc2ccccc12)N1CCOCC1 with fluorescence slope of -0.4 or above?
rule not met

Hi team, for O=C(CSCc1ccc(F)cc1)NC1CCCC1 , is the recorded fluorescence slope at or above -0.4?
rule not met

* * *

target: Voltage-gated potassium channel subunit beta-2 (Rattus norvegicus) (UniProt P62483); experiment: KvBeta positive modulators, primary screen, biochemical, NADPH fluorescence (AID 623); settings: Recombinant KvBeta, NADPH fluorescence decrease slope, 10 min; at 10 µM; stronger effect = lower value;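 note: fluorescence intensity change per second fitted from 20 to 320 s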
Sequence (P62483 whole entry, looked up): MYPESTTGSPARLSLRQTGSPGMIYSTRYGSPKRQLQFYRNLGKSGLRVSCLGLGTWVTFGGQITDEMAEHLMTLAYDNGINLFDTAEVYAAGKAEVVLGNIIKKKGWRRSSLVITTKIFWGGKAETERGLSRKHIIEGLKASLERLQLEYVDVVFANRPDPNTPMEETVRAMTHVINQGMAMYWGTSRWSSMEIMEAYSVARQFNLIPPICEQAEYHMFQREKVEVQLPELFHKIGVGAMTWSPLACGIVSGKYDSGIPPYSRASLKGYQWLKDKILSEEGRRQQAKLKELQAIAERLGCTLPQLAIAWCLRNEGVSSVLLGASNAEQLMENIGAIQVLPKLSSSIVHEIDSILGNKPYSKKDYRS
VALUE TYPE: NADPH fluorescence slope
Keep the answer to the number alone.

Example entries and their recorded answers appear below.
# NADPH fluorescence slope lookup, item O=C(CCNS(=O)(=O)c1cccc2nsnc12)NCc1cccs1
-0.000109

Name the recorded NADPH fluorescence slope for CC1(C)CC(=O)C(C(=O)CCCCC(=O)C2C(=O)CC(C)(C)CC2=O)C(=O)C1 .
1.6e-05

What value of NADPH fluorescence slope has been recorded for this entry: COc1cccc(NC(=O)C2C3C=CC4(O3)C2C(=O)N(C(C)C)C4C(=O)NC2CCCCC2C)c1 (stereo not drawn)
3.5e-06

I have this molecule here, COc1cccc(Cn2c(NCc3ccccn3)nc3c2c(=O)n(C)c(=O)n3C)c1 , and I need its recorded NADPH fluorescence slope.
-7.9e-05

Others:
Tell me the measured NADPH fluorescence slope of Cn1c(=O)[nH]c(=O)c2c1nc(N1CCNCC1)n2CCOc1ccccc1 , please.
4.4e-05

What value of NADPH fluorescence slope has been reported for the following molecule? CS(=O)(=O)N(CC(=O)NCc1ccncc1)Cc1ccc(Cl)cc1
-1.2e-06

Look at this molecule and give its reported NADPH fluorescence slope. O=C(Sc1nnnn1C1CCCCC1)c1cccs1
1.5e-05

Name the reported NADPH fluorescence slope value associated with the molecule COc1ccc2cc(C(c3nnnn3C3CCCCC3)N3CCCCCC3)c3nnnn3c2c1 (stereo not drawn)
-3.1e-06

Name the reported NADPH fluorescence slope value associated with the molecule Cc1onc(-c2c(Cl)cccc2Cl)c1C(=O)NCC1CCCO1 (stereo not drawn)
1.7e-05
